# System: sera obtained from cancer patients
# assay explanation: ELISA B cell epitope screening of 15-mer peptides with cancer patient sera
# Format: binding, human
# experimental context: single 15-mer peptides of SP8 or SP9
parameter: B epitope found by ELISA using patient sera

Some solved cases for reference:
sequence chain	test result
LNRSKRFIFTLIAVI [15-mer 88]	epitopes were found
GVALHSSVQSVNFVN [15-mer 95]	epitopes were found
AAVAGVALHSSVQSV [15-mer 94]	epitopes were found
AVIMGLIAVTATAAV [15-mer 91]	epitopes were found

Alright, here's another sequence for you.
Input: Return value of B epitope found by ELISA using patient sera for input KRFIFTLIAVIMGLI [15-mer 89] , no commentary.
Output: epitopes were found
